target: thymidylate synthase (TS) (Mus musculus, UniProt P07607); construct: enzyme partially purified from the L1210:C15 TS-overproducing cell line; assay: inhibition of isolated mouse TS activity at […] (R,S)-5,10-CH2FH4
Sequence (P07607 whole entry): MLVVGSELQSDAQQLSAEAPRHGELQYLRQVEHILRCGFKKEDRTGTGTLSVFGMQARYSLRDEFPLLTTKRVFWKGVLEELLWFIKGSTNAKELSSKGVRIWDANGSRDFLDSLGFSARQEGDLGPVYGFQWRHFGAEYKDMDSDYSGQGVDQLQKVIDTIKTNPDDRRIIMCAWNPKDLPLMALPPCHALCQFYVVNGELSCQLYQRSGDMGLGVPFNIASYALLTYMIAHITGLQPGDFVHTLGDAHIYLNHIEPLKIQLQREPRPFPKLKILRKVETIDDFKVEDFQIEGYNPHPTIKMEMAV
property: pIC50
Here pIC50 is given on a logarithmic scale as minus log10 of the concentration in mol/L.

Enquiry: Requested field: pIC50. Item: C#CCN(Cc1cc2c(=O)[nH]c(C)nc2cc1Br)c1ccc(C(=O)NCc2ccncc2)cc1 [CB300189]
Return: 6.60

----------
target: thymidylate synthase (TS) (Mus musculus); construct: enzyme partially purified from the L1210:C15 TS-overproducing cell line; assay: inhibition of isolated mouse TS activity and inhibition kinetics (IC50 […], Kies […])
property: pKi
Here pKi is given on a logarithmic scale as minus log10 of the concentration in mol/L.

Enquiry: Requested field: pKi. Item: C#CCN(Cc1cc2c(=O)[nH]c(C)nc2cc1Br)c1ccc(C(=O)NCc2ccccn2)cc1 [CB300179]
Return: 6.80
